The origin of these recorded values is patent US8912202B2.

Biological target: LPA2R (Homo sapiens)
Assay: LPA2R-Calciumflux assay (FLIPR, intracellular calcium mobilisation after LPA)
Details: U2OS cells recombinant expressing LPA2R; antagonism of LPA-induced calcium flux; racemate of the two trans enantiomers unless marked enantiomer
Method: The assay detects intra cellular calcium which is generated by cells upon activation of the LPA2 receptor by its ligand LPA. This transient calcium mobilization can be monitored using a commercial calcium detection kit (e.g. from Molecular Devices). The main component of such a kit is a dye, which becomes fluorescent when calcium is present—a transient fluorescence signal after addition of a ligand to a test well are the result. […] The signals are calculated according to peak maximum minus base line. […]
parameter-measured: IC50

* O=C(Nc1nc2cc(Cl)ccc2[nH]1)C1CC1c1ccccc1 (racemic) | 10 to 100 nM
* O=C(Nc1nc2c(Cl)cc(Cl)cc2[nH]1)C1CC1c1ccccc1 (racemic) | 100 to 1000 nM
* O=C(Nc1nc2ccccc2[nH]1)C1CC1c1ccccc1Cl (single isomer, unassigned; enantiomer-2) [drawing 75] | 10 to 100 nM
* O=C(Nc1nc2c(NCC3CCN(Cc4ccccc4)CC3)cccc2[nH]1)C1CC1c1ccccc1 (racemic) | 1000 to 10000 nM

---

target: LPA2R (Homo sapiens, UniProt Q9HBW0); assay: LPA2R-Calciumflux assay (FLIPR, intracellular calcium mobilisation after LPA); conditions: U2OS cells recombinant expressing LPA2R; antagonism of LPA-induced calcium flux; racemate of the two trans enantiomers unless marked enantiomer
Sequence (Q9HBW0 whole entry): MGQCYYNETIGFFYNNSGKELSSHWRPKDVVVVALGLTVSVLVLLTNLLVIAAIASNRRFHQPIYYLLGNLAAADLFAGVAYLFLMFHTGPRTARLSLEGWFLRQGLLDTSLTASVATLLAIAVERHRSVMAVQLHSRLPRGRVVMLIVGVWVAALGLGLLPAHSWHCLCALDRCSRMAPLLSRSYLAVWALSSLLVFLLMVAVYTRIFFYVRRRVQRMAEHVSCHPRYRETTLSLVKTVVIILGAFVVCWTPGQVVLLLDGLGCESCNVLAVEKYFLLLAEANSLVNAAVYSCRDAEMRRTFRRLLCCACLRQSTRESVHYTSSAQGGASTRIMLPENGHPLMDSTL
pIC50: −log10 of the molar value.
parameter-measured: pIC50

* O=C(Nc1nc2ccnc(Cl)c2[nH]1)C1CC1c1ccccc1 (single isomer, unassigned; enantiomer-2) | 7.00 to 8.00
* COc1ccc2[nH]c(NC(=O)C3CC3c3ccccc3)nc2c1 (racemic) | 7.00 to 8.00
* O=C(Nc1nc2ccccc2[nH]1)C1CC1c1ccccc1 (racemic) | 7.00 to 8.00
* NCc1ccc2[nH]c(NC(=O)C3CC3c3ccccc3)nc2c1 (racemic) | 5.00 to 6.00
* O=C(Nc1nc2cncnc2[nH]1)C1CC1c1ccccc1 (racemic) | 5.00 to 6.00

---

molecular target: LPA2R (Homo sapiens, UniProt Q9HBW0); experiment: LPA2R-Calciumflux assay (FLIPR, intracellular calcium mobilisation after LPA); settings: U2OS cells recombinant expressing LPA2R; antagonism of LPA-induced calcium flux; racemate of the two trans enantiomers unless marked enantiomer
pIC50: −log10 of the molar value.
parameter-measured: pIC50

• Cc1cccc(C2CC2C(=O)Nc2nc3ccccc3[nH]2)c1 (racemic) = 7.00 to 8.00
• Cc1ccc(C2CC2C(=O)Nc2nc3ccccc3[nH]2)cc1 (racemic) = 5.00 to 6.00
• CC1(C)C(C(=O)Nc2nc3ccc(Cl)cc3[nH]2)C1c1ccccc1 (racemic) = < 5.00
• O=C(Nc1nc2c(OCCN3CCCC3)cccc2[nH]1)C1CC1c1ccccc1 (single isomer, unassigned; enantiomer-2) = 6.00 to 7.00
• O=C(Nc1nc2cc(Br)cnc2[nH]1)C1CC1c1ccccc1 (racemic) = > 8.00
• O=C(Nc1nc2cc(Cl)c(Cl)cc2[nH]1)C1CC1c1ccccc1 (racemic) = 6.00 to 7.00
• O=C(Nc1nc2c([N+](=O)[O-])cc(C(F)(F)F)cc2[nH]1)C1CC1c1ccccc1 (racemic) = 6.00 to 7.00
• O=C(Nc1nc2ccccc2[nH]1)C1CC1c1ccccc1 (single isomer, unassigned; enantiomer-2) [drawing 58] = 5.00 to 6.00
• O=C(Nc1nc2cc(Cl)cnc2[nH]1)C1CC1c1cccc(F)c1 (racemic) = > 8.00
• O=C(Nc1nc2ccccc2[nH]1)C1CC1c1ccccc1Cl (single isomer, unassigned; enantiomer-2) [drawing 76] = < 5.00
• O=C(Nc1nc2ccccc2[nH]1)C1CC1c1ccccc1Cl (racemic) = 7.00 to 8.00
• CC(C)(C)OC(=O)NCc1ccc2[nH]c(NC(=O)C3CC3c3ccccc3)nc2c1 (racemic) = 6.00 to 7.00
• COC(=O)c1cccc2nc(NC(=O)C3CC3c3ccccc3Cl)[nH]c12 (single isomer, unassigned; enantiomer-2) = < 5.00
• O=C(Nc1nc2ccc(C(F)(F)F)cc2[nH]1)C1C(c2ccccc2)C1(F)F (racemic) = 6.00 to 7.00
• CC1(C)C(C(=O)Nc2nc3ccc(C(F)(F)F)cc3[nH]2)C1c1ccccc1 (racemic) = < 5.00
• CC1(C)C(C(=O)Nc2nc3ccccc3[nH]2)C1c1ccccc1 (racemic) = < 5.00
• O=C(Nc1nc2ccccc2[nH]1)C1CC1c1ccccc1 (single isomer, unassigned; enantiomer-2) [drawing 59] = > 8.00
• O=C(Nc1nc2ccccc2[nH]1)C1CC1c1ccc(C(F)(F)F)cc1 (racemic) = 5.00 to 6.00
• N#Cc1ccc2nc(NC(=O)C3C(c4ccccc4)C3(F)F)[nH]c2c1 (racemic) = 6.00 to 7.00
• CC(C)(C)c1ccc(C2CC2C(=O)Nc2nc3ccccc3[nH]2)cc1 (racemic) = < 5.00
• O=C(Nc1nc2ccccc2[nH]1)C1CC1c1ccccc1F (racemic) = 6.00 to 7.00
• O=C(Nc1nc2ccccc2[nH]1)C1CC1c1ccc(Cl)cc1 (racemic) = < 5.00
• O=C(Nc1nc2ccccc2[nH]1)C1CC1c1cccc(Cl)c1 (racemic) = 6.00 to 7.00
• O=C(Nc1nc2cc(Br)cnc2[nH]1)[C@H]1C[C@@H]1c1ccccc1 = 7.00 to 8.00
• O=C(Nc1nc2cc(C(F)(F)F)ccc2[nH]1)C1CC1c1ccccc1 (racemic) = 7.00 to 8.00
• N#Cc1ccc2nc(NC(=O)C3CC3c3ccccc3)[nH]c2c1 (single isomer, unassigned; enantiomer-2) [drawing 71] = 7.00 to 8.00
• O=C(Nc1nc2ccccc2[nH]1)C1CC1c1cccc([N+](=O)[O-])c1 (racemic) = 7.00 to 8.00
• CCc1ccc2[nH]c(NC(=O)C3CC3c3ccccc3)nc2c1 (racemic) = 7.00 to 8.00
• O=C(Nc1nc2ccccc2[nH]1)C1CC1c1cccc(Br)c1 (racemic) = 7.00 to 8.00
• COc1ccc(C2CC2C(=O)Nc2nc3ccccc3[nH]2)cc1 (racemic) = 5.00 to 6.00
• O=C(Nc1nc2ccc(Cl)cc2[nH]1)C1C(c2ccccc2)C1(F)F (racemic) = 7.00 to 8.00
• N#Cc1ccc2nc(NC(=O)C3CC3c3ccccc3Cl)[nH]c2c1 (racemic) = 7.00 to 8.00
• O=C(Nc1nc2cccnc2[nH]1)C1CC1c1ccccc1 (racemic) = 7.00 to 8.00
• O=C(Nc1nc2ccnc(Cl)c2[nH]1)C1CC1c1ccccc1 (racemic) = 7.00 to 8.00
• CN(C)c1ccccc1C1CC1C(=O)Nc1nc2ccccc2[nH]1 (racemic) = 6.00 to 7.00
• N#Cc1cccc(C2CC2C(=O)Nc2nc3ccccc3[nH]2)c1 (racemic) = 6.00 to 7.00
• CN(C)c1cccc(C2CC2C(=O)Nc2nc3ccccc3[nH]2)c1 (racemic) = 6.00 to 7.00
